# procedure_details: inhibitors of the yeast RAM network, pilot screen, dse1pr::URA3 reporter, 5-FOA selection (AID 869);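 also: 0% = DMSO wells with no growth and 100% = 10 µM 1-NA-PP1 with full growth; RAM network block rescues cells from 5-FOA so hits raise OD615 growth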
# details: S. cerevisiae dse1pr::URA3 5-FOA growth, OD615, 2 d; at 10 µM; active compounds read high; strain carries analog-sensitive mutant Cbk1 kinase
measured_parameter: inhibition (%)
Entry rule: numbers only, all in %.

The cases that follow already have their inhibition on record.
* Cc1ccc(C)c(Nc2ncnc3nc[nH]c23)c1 | 1.55
* Cc1ccc(NC(=O)c2cc(NC(=O)C3CC=CCC3C(=O)O)ccc2N2CCOCC2)cc1 (stereo unspecified) | 1.23

Problem: Which value of inhibition has been reported for "C=CCn1c(CCNC(=O)C(C)(C)C)nc2ccccc21" in the records?
Solution: 1.94

Problem: Same read-out for "COc1ccc(N=C(N(C)C)P(=O)(N(C)C)N(C)C)cc1" ?
Solution: 0.22

Problem: Same read-out for "Cc1nc2nc(SCC(=O)N3CCOCC3)nn2c(C)c1Cc1ccccc1" ?
Solution: 1.7

Problem: Same read-out for "CCN(Cc1ccccc1)S(=O)(=O)c1ccc(C(=O)Nc2nnc(C3CC3)o2)cc1" ?
Solution: 2.35

* * *

# procedure_details: growth suppression of beta-catenin knockout HCT116, pilot screen, human colon tumor cells (AID 823);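 also: 0% = wells killed by 20 µM Hyamine and 100% = untreated DMSO cell wells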
# details: CellTiter-Glo, 60 h, at 10 µM, active compounds read low
Results filed as inconclusive are left out.
measured_parameter: viability (%)
Entry rule: numbers only, all in %.

Problem: Which value of viability has been reported for "Cc1cccnc1NC(=O)c1c(O)c2ccccc2n(C)c1=O" in the records?
Solution: 92

Problem: Same read-out for "CC(=O)Nc1nc2cc3c(cc2s1)OCO3" ?
Solution: 96.4

Problem: Same read-out for "O=S(=O)(NC1CCCCC1)c1cccc(-c2nnc(-c3ccccc3)o2)c1" ?
Solution: 88.7

Problem: Same read-out for "COc1ccc(OC)c(S(=O)(=O)NCc2cn3c(C)csc3n2)c1" ?
Solution: 103

Problem: Same read-out for CC1CCN(CC(O)COc2cccc(F)c2)CC1 (stereo unspecified) ?
Solution: 96.7

Problem: Same read-out for "Cc1cnc(C(=O)OCC(=O)Nc2cccc(Cl)c2)cn1" ?
Solution: 92.5

* * *

# procedure_details: Restrictive medium S. cerevisiae growth inhibition, OD615, pilot screen of yeast lifespan reduction project, restrictive growth control (AID 706);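 also: modified DeaD lifespan yeast strain shifted to restrictive glucose medium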
# details: OD615, 48 h, at 10 µM, active compounds read high
measured_parameter: growth inhibition (%)
Entry rule: numbers only, all in %.

The cases that follow already have their growth inhibition on record.
• CCn1cc(C(=O)NCc2cccnc2)c2cc(OC)c(OC)cc2c1=O = -10
• NCCCC(=O)N1c2ccccc2Sc2ccccc21 = 3.53
• COc1ccc(NC(=O)C2CCC(C)(C(=O)O)C2(C)C)cc1 (stereo unspecified) = 3.7
• Cc1cc(=O)n2[nH]c(C)c(-c3ccc(Cl)cc3)c2n1 = -11.8
• CCCNc1nc2c(c(=O)[nH]c(=O)n2C)n1Cc1cccc(Br)c1 = -9.2

Problem: Which value of growth inhibition has been reported for "Cc1noc(NS(=O)(=O)c2ccc(NC(=O)COc3ccc(Cl)cc3Cl)cc2)c1C" in the records?
Solution: 10.8

Problem: Same read-out for "N#C/C(=C1/CCCCCN1)c1nnc2n1CCCCC2" ?
Solution: 2.4

* * *

Measured viability increase by item
# procedure_details: viability gain of MRP-1-high H69AR cells under doxorubicin, pilot screen, MRP-1 activator project, CellTiter-Glo, duplicate (AID 807);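 also: compound pretreatment 18-22 h then 72 h combined with doxorubicin; 0% = doxorubicin alone and 100% = vehicle without doxorubicin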
# details: H69AR viability with doxorubicin, CellTiter-Glo luminescence; at 10 µM; active compounds read high
Active and inactive are the calls of the source.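 Rule for the calls: active = viability increase at or above a cutoff of the median across tested compounds plus 3 SD (cut at about 8.5% in these data, passing the limit was not always enough); inconclusive = some gains above the cutoff, reason not given; inactive = the rest.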

The cases that follow already have their viability increase on record.
* O=C(O)c1ccc(CSc2nnc(-c3ccco3)o2)cc1 | 0.19% (inactive)
* Cn1c(SCc2nc3ccccc3[nH]2)nnc1-c1cccnc1 | -2.45% (inactive)
* CCCC(=O)NCCCc1nc2ccccc2n1C | -1.21% (inactive)
* CCNc1nc(Oc2ccc(C(=O)OCC)cc2)nc(SC)n1 | -1.58% (inactive)
* O=C(Cn1cc2c(n1)CCCC2)NCCCN1CCCC1 | 0.07% (inactive)
* CCC(C)(C(=O)NC1CCCC1)N(C(=O)CNC(C)=O)c1ccccc1 (stereo unspecified) | -1.96% (inactive)

Problem: Which value of viability increase has been reported for "COc1ccc(OCc2nnc3n2N=C(c2ccc(Br)cc2)CS3)cc1" in the records?
Solution: 2.18% (inactive)

Problem: Same read-out for "COc1ccc(CNC(=O)c2cnc3scc(C)n3c2=O)cc1" ?
Solution: 3.79% (inactive)

Problem: Same read-out for COc1ccc(OC)c(NC(=O)C2CCCN2C(=O)C2CCC(C)CC2)c1 (stereo unspecified) ?
Solution: -5.02% (inactive)

Problem: Same read-out for "Cc1cc(NC(=O)COC(=O)C2CCN(S(=O)(=O)c3ccc(Cl)cc3)CC2)no1" ?
Solution: -2.01% (inactive)

Problem: Same read-out for "CCOc1ccccc1C(=O)NC1CCN(Cc2nnnn2C2CCCC2)CC1" ?
Solution: -1.67% (inactive)
